assay system: UniProt:O95870
protocol details: Inhibition of human ABHD16A expressed in HEK293 cells assessed as residual activity at 10 uM preincubated for 30 mins followed by 1-LG substrate addition and measured after 90 to 120 mins by fluorometric assay relative to control
Format: cell-based
measure: Activity (%)
Dear colleague, please return just the value in %, with no unit written.

Cc1nc(-c2cc3c(cc2C(C)C)CC[C@H]2[C@](C)(CO)CCC[C@]32C)cs1 66.3
COC(=O)[C@]1(C)CCC[C@]2(C)c3cc(-c4csc[n+]4C)c(C(C)C)cc3CC[C@@H]12 80.1
CC(C)c1cc2c(cc1-c1csc(N)n1)[C@@]1(C)CCC[C@@](C)(C(N)=O)[C@@H]1CC2 80
CC(C)c1cc2c(cc1-c1cscn1)[C@@]1(C)CCC[C@@](C)(CO)[C@@H]1CC2 65.9
COC(=O)[C@]1(C)CCC[C@]2(C)c3cc(-c4csc(C)n4)c(C(C)C)cc3CC[C@@H]12 23

Please fill in: Activity reported for COC(=O)[C@]1(C)CCC[C@]2(C)c3cc(-c4csc(C#N)n4)c(C(C)C)cc3CC[C@@H]12 = 42.8

Please fill in: Activity reported for COC(=O)[C@]1(C)CCC[C@]2(C)c3cc(-c4csc(N)n4)c(C(C)C)cc3CC[C@@H]12 = 58.2

Please fill in: Activity reported for Cc1nc(-c2cc3c(cc2C(C)C)CC[C@H]2[C@](C)(C(=O)O)CCC[C@]32C)cs1 = 98.4

###

assay system: Phosphatidylserine lipase ABHD16A (Homo sapiens) (UniProt O95870)
Sequence (whole entry): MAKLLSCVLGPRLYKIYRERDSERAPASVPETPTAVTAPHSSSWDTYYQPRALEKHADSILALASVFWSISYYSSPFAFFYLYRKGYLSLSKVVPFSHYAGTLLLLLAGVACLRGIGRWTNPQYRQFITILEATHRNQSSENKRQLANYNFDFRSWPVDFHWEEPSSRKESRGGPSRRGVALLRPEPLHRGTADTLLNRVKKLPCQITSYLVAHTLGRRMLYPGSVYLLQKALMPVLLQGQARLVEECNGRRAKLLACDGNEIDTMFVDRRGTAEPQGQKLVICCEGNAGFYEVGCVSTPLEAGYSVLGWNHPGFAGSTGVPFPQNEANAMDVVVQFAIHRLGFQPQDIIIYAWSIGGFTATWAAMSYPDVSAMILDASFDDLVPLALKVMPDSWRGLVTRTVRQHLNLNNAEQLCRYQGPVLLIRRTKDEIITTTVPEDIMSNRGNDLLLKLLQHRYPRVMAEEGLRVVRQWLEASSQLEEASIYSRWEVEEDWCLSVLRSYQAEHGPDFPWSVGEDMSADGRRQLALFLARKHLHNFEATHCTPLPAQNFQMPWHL
protocol details: Inhibition of human ABHD16A expressed in HEK293 cells assessed as residual activity at 10 uM preincubated for 30 mins followed by 1-LG substrate addition and measured after 90 to 120 mins by fluorometric assay relative to control
Type: cell-based
Reported Activity values for the following compounds.
Dear colleague, please return just the value in %, with no unit written.

Consider the following illustrative entries.
CC[n+]1c(-c2cc3c(cc2C(C)C)CC[C@H]2[C@](C)(C(=O)OC)CCC[C@]32C)csc1C 81.5
COC(=O)[C@]1(C)CCC[C@]2(C)c3cc(-c4csc(-c5ccccc5)n4)c(C(C)C)cc3CC[C@@H]12 73.8

Please fill in: Activity reported for COC(=O)[C@]1(C)CCC[C@]2(C)c3cc(-c4csc(-c5ccc(Cl)cc5)n4)c(C(C)C)cc3CC[C@@H]12 = 99.3

Please fill in: Activity reported for COC(=O)[C@]1(C)CCC[C@]2(C)c3cc(-c4cscn4)c(C(C)C)cc3CC[C@@H]12 = 50.3

###

assay system: Phosphatidylserine lipase ABHD16A (Homo sapiens)
protocol details: Inhibition of human ABHD16A expressed in HEK293 cells assessed as residual activity at 10 uM preincubated for 30 mins followed by 1-LG substrate addition and measured after 90 to 120 mins by fluorometric assay relative to control
Format: cell-based
Reported Activity values for the following molecules.
Numeric answer plus unit only.

CCOC(=O)c1nc(-c2cc3c(cc2C(C)C)CC[C@H]2[C@](C)(C(=O)OC)CCC[C@]32C)cs1 48.7%
CC(C)c1cc2c(cc1-c1cscn1)[C@@]1(C)CCC[C@@](C)(C(N)=O)[C@@H]1CC2 82.1%
COC(=O)[C@]1(C)CCC[C@]2(C)c3cc(-c4csc(C)[n+]4C)c(C(C)C)cc3CC[C@@H]12 82.7%
CC(C)c1cc2c(cc1-c1csc(N)n1)[C@@]1(C)CCC[C@@](C)(CO)[C@@H]1CC2 74.6%
COC(=O)[C@]1(C)CCC[C@]2(C)c3cc(-c4csc(-c5ccccc5Cl)n4)c(C(C)C)cc3CC[C@@H]12 86.6%

Please fill in: Activity reported for CC(C)c1cc2c(cc1-c1cscn1)[C@@]1(C)CCC[C@@](C)(C(=O)O)[C@@H]1CC2 = 91.5%

Please fill in: Activity reported for Cc1nc(-c2cc3c(cc2C(C)C)CC[C@H]2[C@](C)(C(N)=O)CCC[C@]32C)cs1 = 80.6%

Please fill in: Activity reported for CC(C)c1cc2c(cc1-c1cscn1)[C@@]1(C)CCC[C@@](C)(C(=O)OCCO)[C@@H]1CC2 = 62.9%

###

Reported activity at 10 µM values for the following compounds.
assay system: UniProt Q8N2K0
protocol details: Inhibition of human ABHD12 expressed in HEK293 cells assessed as residual activity at 10 uM preincubated for 30 mins followed by 1-AG substrate addition and measured after 90 to 120 mins by fluorometric assay relative to control
Format: cell-based
measurement conditions: HEK293 cells that express human ABHD12, probe 1-AG, read-out: Activity
Dear colleague, please return just the value in %, with no unit written.

Please fill in: activity at 10 µM reported for COC(=O)[C@]1(C)CCC[C@]2(C)c3cc(-c4csc(C#N)n4)c(C(C)C)cc3CC[C@@H]12 = 94.3

Please fill in: activity at 10 µM reported for Cc1nc(-c2cc3c(cc2C(C)C)CC[C@H]2[C@](C)(CO)CCC[C@]32C)cs1 = 98.7

Please fill in: activity at 10 µM reported for COC(=O)[C@]1(C)CCC[C@]2(C)c3cc(-c4csc(C)n4)c(C(C)C)cc3CC[C@@H]12 = 100

Please fill in: activity at 10 µM reported for Cc1nc(-c2cc3c(cc2C(C)C)CC[C@H]2[C@](C)(C(=O)O)CCC[C@]32C)cs1 = 102

Please fill in: activity at 10 µM reported for CC(C)c1cc2c(cc1-c1cscn1)[C@@]1(C)CCC[C@@](C)(C(=O)OCCO)[C@@H]1CC2 = 77.8

###

assay system: ABHD12 (lysophosphatidylserine lipase) (Homo sapiens, UniProt Q8N2K0)
Sequence (Q8N2K0 whole entry): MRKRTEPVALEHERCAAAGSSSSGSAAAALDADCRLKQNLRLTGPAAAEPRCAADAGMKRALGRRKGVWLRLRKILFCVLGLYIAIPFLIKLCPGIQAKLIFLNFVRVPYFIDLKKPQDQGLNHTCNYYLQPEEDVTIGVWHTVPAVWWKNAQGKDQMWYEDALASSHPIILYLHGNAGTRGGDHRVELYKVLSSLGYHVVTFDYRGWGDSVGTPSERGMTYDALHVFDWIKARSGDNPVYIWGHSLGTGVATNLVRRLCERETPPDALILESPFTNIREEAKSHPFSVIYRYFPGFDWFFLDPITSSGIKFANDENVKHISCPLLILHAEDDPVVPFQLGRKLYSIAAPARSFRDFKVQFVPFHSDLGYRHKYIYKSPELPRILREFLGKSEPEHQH
protocol details: Inhibition of human ABHD12 expressed in HEK293 cells assessed as residual activity at 10 uM preincubated for 30 mins followed by 1-AG substrate addition and measured after 90 to 120 mins by fluorometric assay relative to control
Type: cell-based
measurement conditions: HEK293 cells that express human ABHD12, probe 1-AG, read-out: Activity
Reported activity at 10 µM values for the following molecules.
Dear colleague, please return just the value in %, with no unit written.

CC(C)c1cc2c(cc1-c1cscn1)[C@@]1(C)CCC[C@@](C)(C(=O)O)[C@@H]1CC2 98.4

# context switch: different molecule, same activity at 10 µM
Please fill in: activity at 10 µM reported for Cc1nc(-c2cc3c(cc2C(C)C)CC[C@H]2[C@](C)(C(N)=O)CCC[C@]32C)cs1 = 99.6

###

assay system: ABHD12 (lysophosphatidylserine lipase) (Homo sapiens, UniProt Q8N2K0)
Sequence (Q8N2K0 whole entry): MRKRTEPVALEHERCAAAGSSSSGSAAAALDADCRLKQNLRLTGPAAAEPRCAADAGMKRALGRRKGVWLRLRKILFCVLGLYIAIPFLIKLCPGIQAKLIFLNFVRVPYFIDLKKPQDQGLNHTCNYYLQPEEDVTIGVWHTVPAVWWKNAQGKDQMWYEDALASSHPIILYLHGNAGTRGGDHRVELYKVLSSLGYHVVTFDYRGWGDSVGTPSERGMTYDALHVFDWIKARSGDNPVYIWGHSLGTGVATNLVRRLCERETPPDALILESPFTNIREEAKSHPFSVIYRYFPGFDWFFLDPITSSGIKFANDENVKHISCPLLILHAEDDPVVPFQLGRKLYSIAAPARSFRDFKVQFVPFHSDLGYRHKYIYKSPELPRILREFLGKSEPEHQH
protocol details: Inhibition of human ABHD12 expressed in HEK293 cells assessed as residual activity at 10 uM preincubated for 30 mins followed by 1-AG substrate addition and measured after 90 to 120 mins by fluorometric assay relative to control
Format: cell-based
measurement conditions: HEK293 cells that express human ABHD12, probe 1-AG, read-out: Activity
measure: activity at 10 µM (%)
Dear colleague, please return just the value in %, with no unit written.

Consider the following illustrative entries.
COC(=O)[C@]1(C)CCC[C@]2(C)c3cc(-c4csc(-c5ccc(Cl)cc5)n4)c(C(C)C)cc3CC[C@@H]12 96.6
COC(=O)[C@]1(C)CCC[C@]2(C)c3cc(-c4csc(-c5ccccc5)n4)c(C(C)C)cc3CC[C@@H]12 89.8
COC(=O)[C@]1(C)CCC[C@]2(C)c3cc(-c4cscn4)c(C(C)C)cc3CC[C@@H]12 91.5
CC(C)c1cc2c(cc1-c1cscn1)[C@@]1(C)CCC[C@@](C)(CO)[C@@H]1CC2 96.3
COC(=O)[C@]1(C)CCC[C@]2(C)c3cc(-c4csc(N)n4)c(C(C)C)cc3CC[C@@H]12 103
CC[n+]1c(-c2cc3c(cc2C(C)C)CC[C@H]2[C@](C)(C(=O)OC)CCC[C@]32C)csc1C 91.1
CCOC(=O)c1nc(-c2cc3c(cc2C(C)C)CC[C@H]2[C@](C)(C(=O)OC)CCC[C@]32C)cs1 73.8
COC(=O)[C@]1(C)CCC[C@]2(C)c3cc(-c4csc(C)[n+]4C)c(C(C)C)cc3CC[C@@H]12 92.8
CC(C)c1cc2c(cc1-c1csc(N)n1)[C@@]1(C)CCC[C@@](C)(C(N)=O)[C@@H]1CC2 96.9
COC(=O)[C@]1(C)CCC[C@]2(C)c3cc(-c4csc(-c5ccccc5Cl)n4)c(C(C)C)cc3CC[C@@H]12 101

Please fill in: activity at 10 µM reported for CC(C)c1cc2c(cc1-c1cscn1)[C@@]1(C)CCC[C@@](C)(C(N)=O)[C@@H]1CC2 = 98.7

Please fill in: activity at 10 µM reported for COC(=O)[C@]1(C)CCC[C@]2(C)c3cc(-c4csc[n+]4C)c(C(C)C)cc3CC[C@@H]12 = 91.1

Please fill in: activity at 10 µM reported for CC(C)c1cc2c(cc1-c1csc(N)n1)[C@@]1(C)CCC[C@@](C)(CO)[C@@H]1CC2 = 87.8
